Tested on: NCI-H23 lung
Test: NCI tumour cell line growth inhibition, 48 h
value-kind: TGI (µM)
Express it in µM; write the number only.

{"columns": ["molecule", "value-kind", "value"],
 "data": [
  ["C=C(C)C(=O)O[C@H]1CC2=C[C@@H](C[C@@]3(C)O[C@@H]3[C@H]3OC(=O)C(=C)[C@@H]31)OC2=O", "TGI", 6.59],
  ["Cc1cc([N+](=O)[O-])ccc1Sc1c2ccccc2nc2cc(Cl)ccc12", "TGI", 76.9]
]}

As a next step, examine the molecule that follows.
Looking for the measured TGI of CCOC(=O)C1=C(C)N=c2s/c(=C\c3ccccc3O)c(=O)n2C1c1ccc(OC)c2ccccc12 (stereo not given) , can you help?
30.7
